assay: qHTS assay to identify small molecule antagonists of the estrogen related receptor signaling pathway with the pleiotropic PPARgamma coactivator (PGC) from Tox21 10K library (AID 1224841); conditions: PGC/ERR reporter cell line, ONE-Glo luciferase, 18 h; series mostly up to 92.4 µM; also: actives are mostly falling curves and most rising ones were filed inactive; nearly all actives have a fitted effect of over 50% in size
Inconclusive results are not listed. The source made the active and inactive calls. No rule for the calls is given here.
Your reply should match one of these outcome classes. active, inactive

INSERT INTO results (compound, cat) VALUES
  ('CC1(C)COCN1', 'inactive'),
  ('O=c1cccc[nH]1', 'inactive'),
  ('CC(C)c1ccccc1N', 'inactive'),
  ('Oc1ccc(-c2ccc(O)cc2)cc1', 'inactive'),
  ('O=C(NO)c1ccccc1', 'active');

Input line: What call does the record list for CC(C)c1ccc(O)c(C(C)C)c1 ?
Output line: inactive

Input line: What call does the record list for C=CC(=O)OCCOCC(CC)(COCCOC(=O)C=C)COCCOC(=O)C=C ?
Output line: active

Input line: What call does the record list for CCCCCCOc1ccc(O)cc1 ?
Output line: inactive

Input line: What call does the record list for CCCCCCCOC(=O)c1ccccc1C(=O)OCCCCCCC ?
Output line: inactive

Input line: What call does the record list for O=C1NCCN1CCN1CCC(c2cn(-c3ccc(F)cc3)c3ccc(Cl)cc23)CC1 ?
Output line: inactive

Input line: What call does the record list for CCCCOCC ?
Output line: inactive

Input line: What call does the record list for CCCCCCCC/C=C/CCCOC(C)=O ?
Output line: inactive

Input line: What call does the record list for CC(COC(=O)c1ccccc1)OC(=O)c1ccccc1 (stereo unspecified) ?
Output line: inactive

Input line: What call does the record list for O[C@@H](c1cc(C(F)(F)F)nc2c(C(F)(F)F)cccc12)[C@H]1CCCCN1 ?
Output line: inactive

Input line: What call does the record list for O=C1NC2CCCCN2C12CCN(CCCN1c3ccccc3CCc3ccc(Cl)cc31)CC2 (stereo unspecified) ?
Output line: active

Input line: What call does the record list for C[C@@H]1CC[C@H]2C(C)(C)[C@H]3C[C@@]12CC[C@@]3(C)O ?
Output line: active

Input line: What call does the record list for CN1CN(C)CN(C)C1 ?
Output line: inactive

Input line: What call does the record list for C=CC(=O)OCCC#N ?
Output line: inactive

Input line: What call does the record list for CCCC(=O)OCC(COC(=O)CCC)OC(=O)CCC ?
Output line: inactive

Input line: What call does the record list for COC(=O)[C@]1(C)CCC[C@@]2(C)[C@H]1CC=C1C=C(C(C)C)CC[C@@H]12 ?
Output line: inactive

Input line: What call does the record list for Oc1c(Br)cc(Br)c2cccnc12 ?
Output line: inactive

Input line: What call does the record list for CC1=CCC(=O)O1 ?
Output line: inactive

Input line: What call does the record list for CCOCOCC ?
Output line: inactive

Input line: What call does the record list for CCN(CC)c1ccc(N)cc1 ?
Output line: active

Input line: What call does the record list for COc1cc(C(=O)NS(=O)(=O)c2ccccc2C)ccc1Cc1cn(C)c2ccc(NC(=O)OC3CCCC3)cc12 ?
Output line: inactive

Input line: What call does the record list for CCOC(/C=C(\C)CCC=C(C)C)OCC ?
Output line: inactive

Origin of measurements: PubChem BioAssay (Tox21)
